Here, each record is paired with measured sfGFP reporter fluorescence data.
B1: library; numbered along this chain (parent)
chain: MNIQIGELAKRTACPVVTIRFYEQEGLLPPPGRSRGNFRLYGEEHVERLQFIRHCRSLDMPLSDVRTLLSYRKRPDQDCGEVNMLLDEHIRQVESRIGALLELKHHLVELREACSGARPAQSCGILQGLSDCVCDTRGTTAHPSD

variants of: B1; assay: sfGFP reporter fluorescence (15 h) (µM FITC); higher = higher leak; settings: library round: Round 0; ligand: none
Form field (numeric): enter value without unit.

For reference, reported sfGFP reporter fluorescence for "R111E" stands at 0.0586

Just so you know, measured sfGFP reporter fluorescence for "G36P" came out at 0.0594

Values compiled from the supplement of paper PMC12783771.
